experiment: Cytotoxicity in human H1HeLa cells assessed as reduction in cell viability incubated for 3 days by MTT assay; type: cell-based, H1-HeLa
Endpoint name: CC50 at 72 h (µM)
Numbers only, in µM.

> print(dat)
                                   compound  reported
1  CC(C)(C)C1CCc2c(sc3c2c(=O)n(-c2cccc(Br)c2)c2nncn32)C1 (stereo not drawn)      26.3
2  CC(C)(C)C1CCc2c(sc3c2c(=O)n(-c2ccc(Br)cc2)c2nncn32)C1 (stereo not drawn)        11
3  CC(C)(C)C1CCc2c(sc3c2c(=O)n(-c2ccc(Cl)cc2)c2nncn32)C1 (stereo not drawn)      18.8
4  CC1(C)Cc2c(sc3c2c(=O)n(-c2ccccc2)c2nncn32)C(C)(C)C1       9.6
5  CC(C)(C)C1CCc2c(sc3c2c(=O)n(-c2ccccc2)c2nnc(S)n32)C1 (stereo not drawn)      40.1
6  COc1ccc(-n2c(=O)c3c4c(sc3n3cnnc23)CC(C(C)(C)C)CC4)cc1 (stereo not drawn)      21.9

Report CC50 at 72 h for every entry below.
1. Cc1ccccc1-n1c(=O)c2c3c(sc2n2cnnc12)CC(C(C)(C)C)CC3 (stereo not drawn)
2. CC(C)(C)C1CCc2c(sc3c2c(=O)n(-c2ccccc2)c2nnc(-c4ccccc4)n32)C1 (stereo not drawn)
3. CC(C)(C)C1CCc2c(sc3c2c(=O)n(-c2ccccc2)c2nncn32)C1 (stereo not drawn)
4. CC(C)(C)C1CCc2c(sc3c2c(=O)n(-c2ccccc2)c2nnc(N)n32)C1 (stereo not drawn)
5. CC(C)(C)C1CCc2c(sc3c2c(=O)n(-c2cccc(Cl)c2)c2nncn32)C1 (stereo not drawn)
6. O=c1c2c3c(sc2n2cnnc2n1-c1ccccc1)CC(c1ccccc1)CC3 (stereo not drawn)

Reply text:
[35.4, 8.7, 9.6, 35.4, 15, 27.6]

====

assay: Cytotoxicity in human HeLa cells assessed as reduction in cell viability incubated for 3 days by MTT assay; type: cell-based
Would you mind telling me the reported CC50 at 72 h of each entry?
Give bare numbers, in µM.

Report CC50 at 72 h for every entry below.
1. CC(C)(C)C1CCc2c(sc3c2c(=O)n(-c2ccc(Cl)cc2)c2nncn32)C1 (stereo not drawn)
2. CC(C)(C)C1CCc2c(sc3c2c(=O)n(-c2ccccc2)c2nnc(N)n32)C1 (stereo not drawn)
3. CC(C)(C)C1CCc2c(sc3c2c(=O)n(-c2ccc(Br)cc2)c2nncn32)C1 (stereo not drawn)

Reply text:
1: 36.5; 2: 45.9; 3: 30.5

====

assay: Cytotoxicity in human H1HeLa cells assessed as reduction in cell viability incubated for 3 days by MTT assay; type: cell-based, H1-HeLa
Category scheme (CC50 at 72 h): lower band = under 20 µM, central band = from 20 µM up to 50 µM, upper band = 50 µM and over

> print(dat)
                                   compound  qualitative.label
1  CCCC1CCc2c(sc3c2c(=O)n(-c2ccccc2)c2nncn32)C1 (stereo not given)       central band

Inquiry: Which CC50 at 72 h category applies to Cc1cc(CCCOc2c(C)cc(-c3noc(C(F)(F)F)n3)cc2C)on1 [PLECONARIL] here?
Reply text: upper band

Inquiry: Which CC50 at 72 h category applies to Cc1nnc2n(-c3ccccc3)c(=O)c3c4c(sc3n12)CC(C(C)(C)C)CC4 (stereo not given) here?
Reply text: central band
